Origin of measurements: ChEMBL document CHEMBL2385062

# assay-comment: Half life in BALB/c mouse brain at 20 mg/kg, orally administered in corn oil by LC/MS/MS analysis
# assay-setup: po
outcome-measure: half-life (h)
Numbers only here, please. The scale is h.

## Input Query (compound): COc1cccc(/C=N/N(C(=O)C(F)(F)F)c2ccc(C)cc2C)c1 ; field requested: half-life
## Output 2.5

----------
# assay-comment: Half life in human liver microsomes at 5 uM by LC/MS/MS analysis in presence of NADPH
# Format: ADME, Microsome
outcome-measure: half-life at 5 µM (min)
Report the value in min with no unit label.

## Input Which value of half-life at 5 µM has been reported for COc1cccc(/C=N/N(C(=O)C(F)(F)F)c2ccc(C)cc2C)c1 in the records?
## Output 4.5
